src = patent US20070128217A1

// values below are reported Binding of Control serum LUMC to looped peptides
# Tested on: control sera (pooled serum of ten healthy LUMC hospital workers; commercial negative donor pooled serum from the Dutch bloodbank)
# Type: binding, human
property.name: Binding of Control serum LUMC to looped peptides

| query.sequence | measured.value |
| --- | --- |
| LQTLVLKMLHSSSLT | 0.5 |
| RGNTYSTAWLCALGK | 0.6 |
| AAEASKKPRQKRTAT | 0.5 |
| LLLLDRLNQLESKVS | 0.4 |
| ALQELLIQQWIQFMM | 0.7 |
| GNSPARMASGGGETA | 0.4 |
| MKELSPRWYFYYLGT | 0.6 |
| IILFLTLIVFTSCEL | 0.6 |
| ACLCKHKKVSTNLCT | 0.3 |
| GSSGVANPAMDPIYD | 0.4 |
| FQHQNSKKTTKLVVI | 0.5 |
| LGTGPEASLPYGANK | 0.6 |
| LVVILRIGTQVLKTM | 0.6 |
| LNKRWQLALYKGFQF | 0.6 |
| VVHGYFTEVYYQLES | 0.6 |
| NGGRNGARPKQRRPQ | 0.7 |
| HSGVKDYVVVHGYFT | 2.3 |
| ELYHYQECVRGTTVL | 0.7 |

---

# System: antibodies in sera from SARS patients (sera 1a, 1b, 2, 6, 37, 62, London, SARS-yellow, SARS-green)
# Assay type: binding, human
Kindly return satisfied if reported Binding of serum SARS-yellow to looped/cyclic peptide (PEPSCAN-ELISA) is no lower than 0.5; return not satisfied if it is lower.

| query.sequence | cat |
| --- | --- |
| SATKIIALNKRWQLA | satisfied |
| FQFICNLLLLFVTIY | not satisfied |
| LQASLPFGWLVIGVA | not satisfied |
| LLYDANYFVCWHTHN | not satisfied |
| IMRCWLCWKCKSKNP | not satisfied |
| KGFQFICNLLLLFVT | satisfied |
| LYLYALIYFLQCINA | not satisfied |
| VFQSATKIIALNKRW | not satisfied |
| YKGFQFICNLLLLFV | not satisfied |
| IYFLQCINACRIIMR | satisfied |
| RWQLALYKGFQFICN | satisfied |
| PLLYDANYFVCWHTH | not satisfied |
| CWKCKSKNPLLYDAN | satisfied |
| AQFLYLYALIYFLQC | not satisfied |
| NPLLYDANYFVCWHT | not satisfied |
| AFLAVFQSATKIIAL | satisfied |
| QCINACRIIMRCWLC | not satisfied |

---

// values below are reported Binding of serum 37 to linear peptides of protein X5 of SARS-CoV Urbani
# Tested on: antibodies in sera from SARS patients (sera 1a, 1b, 2, 6, 37, 62, London, SARS-yellow, SARS-green)
# Type: binding, human
# Design: unit not given here
property.name: Binding of serum 37 to linear peptides of protein X5 of SARS-CoV Urbani

| query.sequence | measured.value |
| --- | --- |
| ALGKVLPFHRWHTMV | 0.6 |
| GNTYSTAWLCALGKV | 0.7 |
| VRYNTRGNTYSTAWL | 0.6 |
| STAWLCALGKVLPFH | 0.7 |
| HRWHTMVQTCTPNVT | 0.7 |
| LVRYNTRGNTYSTAW | 0.6 |
| PFHRWHTMVQTCTPN | 0.7 |
